- measured_on: Drosophila melanogaster tyramine receptor (TyrR) (Drosophila melanogaster, UniProt P22270, C261Y)
- Construct: The open reading frame encodes a protein of 601 amino acids; expressed in transfected cells
- Sequence (P22270 27-601 C261Y): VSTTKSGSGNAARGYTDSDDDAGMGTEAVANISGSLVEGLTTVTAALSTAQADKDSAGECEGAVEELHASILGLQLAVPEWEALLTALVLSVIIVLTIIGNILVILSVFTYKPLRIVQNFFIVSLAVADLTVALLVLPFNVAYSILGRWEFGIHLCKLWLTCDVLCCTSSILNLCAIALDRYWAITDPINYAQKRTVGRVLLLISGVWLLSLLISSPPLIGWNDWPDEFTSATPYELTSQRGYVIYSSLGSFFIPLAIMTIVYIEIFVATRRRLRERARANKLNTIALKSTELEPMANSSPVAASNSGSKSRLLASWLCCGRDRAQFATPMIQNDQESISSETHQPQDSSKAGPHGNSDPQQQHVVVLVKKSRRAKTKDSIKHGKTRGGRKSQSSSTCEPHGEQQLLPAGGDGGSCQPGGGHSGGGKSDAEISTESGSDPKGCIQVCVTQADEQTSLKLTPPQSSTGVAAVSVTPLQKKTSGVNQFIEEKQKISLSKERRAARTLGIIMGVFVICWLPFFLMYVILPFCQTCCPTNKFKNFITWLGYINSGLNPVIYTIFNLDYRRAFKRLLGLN
- protocol_description: biochemical
- Type: binding
- settings: competitive binding vs 4 nM 3H-tyramine; membranes from Schneider Drosophila cells expressing TyrR; mean and standard deviation; read-out: Ki
measurement_label: Ki (µM)
The figure you give is taken to be in µM; do not add the unit.

For the compound shown here, NCC(O)c1ccc(O)cc1 (racemic) , give the reported Ki.
28.7

* * *

- measured_on: Drosophila melanogaster tyramine receptor (TyrR) (Drosophila melanogaster, UniProt P22270, C261Y)
- Construct: The open reading frame encodes a protein of 601 amino acids; expressed in transfected cells
- protocol_description: biochemical
- Type: binding
measurement_label: Ki (nM)
The figure you give is taken to be in nM; do not add the unit.

Below: 4 compounds and their reported Ki.
compound	value_measured
CN(C)CCCN1c2ccccc2Sc2ccc(Cl)cc21	193
Cc1ccc(N(CC2=NCCN2)c2cccc(O)c2)cc1	125
NCCc1c[nH]cn1	193000
NCCc1c[nH]c2ccc(O)cc12 [Serotonin (SE), Serotonin]	89500

For the compound shown here, COC(=O)[C@@H]1[C@H]2C[C@H]3c4[nH]c5ccccc5c4CCN3C[C@@H]2CC[C@@H]1O , give the reported Ki.
71

For the compound shown here, NCCc1ccc(O)cc1 , give the reported Ki.
1270

For the compound shown here, NCCc1ccc(O)c(O)c1 , give the reported Ki.
57500

* * *

- measured_on: Drosophila melanogaster tyramine receptor (TyrR) (Drosophila melanogaster, UniProt P22270, C261Y)
- Construct: The open reading frame encodes a protein of 601 amino acids
- settings: saturation binding, 0.1-30 nM 3H-tyramine, membranes of clone#2 S2 cells; read-out: Kd for specific binding
measurement_label: Kd (nM)
The figure you give is taken to be in nM; do not add the unit.

For the molecule shown here, NCCc1ccc(O)cc1 [^3H-tyramine] , give the reported Kd.
2.56
